Each record here notes measured logP.
Form rule: numeric answer, no unit written next to it.

Fill in reported logP for this entry: CCOc1ccc(C#N)cc1[N+](=O)[O-]
1.77

----------
Entries and their logP values follow.
Please reply with the value in numeric form only.

Examples with answers:
COc1ccc(C(C#N)C(C)C)cc1 (stereo unspecified)    2.68
N#Cc1ccc(Br)cc1    2.42
N#Cc1cccc([N+](=O)[O-])c1    1.3
CC(C)C(C#N)c1ccc([N+](=O)[O-])cc1 (stereo unspecified)    2.63

Specify logP for CCOc1ccc(C#N)cc1Br and stop.
2.99

Retrieve logP measured for CCOc1ccc(C#N)cc1 and print it.
2.03

Note logP for the molecule shown: COc1ccc(C#N)cc1Br
2.35

----------
Recorded logP by entry

CC(C)C(C#N)c1ccccc1 (centres undefined)    2.89
N#Cc1ccc(Cl)c(Cl)c1    2.98
CCOc1ccc(C#N)cc1OC    2.06

Note down logP recorded for CCOc1cc(C#N)ccc1O
1.36

Determine its reported logP: COc1ccc(C#N)cc1OC
1.42

Output logP of COc1cc(C#N)ccc1O
0.82

Tell me measured logP for COc1ccc(C#N)cc1 please.
1.49

Given the molecule N#Cc1ccc(O)c(Br)c1 , write its reported logP.
1.75

Dear colleague, please send me the reported logP for COc1ccc(C#N)cc1[N+](=O)[O-] when you can.
1.23
